- System: late blight on tomato
- Type: in vivo, Plasmopara viticola
- Assay context: tomato (Hofuku), therapeutic effect, sprayed after inoculation, active ingredient 100 ppm, disease severity 7 days after inoculation
The reader will find reported Control value (%) values listed item by item below.
Write the number in % without appending the unit.

Chemical string: Cc1nnnn1C(=NOCc1cccc(NC(=O)OC(C)(C)C)n1)c1cccc(F)c1
Measured quantity: Control value (%)
Endpoint unit: %
Measurement: 100
--
Chemical string: CCCCC(=O)Nc1cccc(CON=C(c2ccccc2)n2nnnc2C)n1
Measured quantity: Control value (%)
Endpoint unit: %
Measurement: 100
--
Chemical string: CCCCCOC(=O)Nc1cccc(CON=C(c2ccc(C)cc2)c2nnnn2C)n1
Measured quantity: Control value (%)
Endpoint unit: %
Measurement: 100
--
Chemical string: Cc1nnnn1C(=NOCc1cccc(NC(=O)OC(C)(C)C)n1)c1ccccc1
Measured quantity: Control value (%)
Endpoint unit: %
Measurement: 100
--
Chemical string: Cn1nnnc1C(=NOCc1cccc(NC(=O)CC(C)(C)C)n1)c1ccccc1
Measured quantity: Control value (%)
Endpoint unit: %
Measurement: 100
--
Chemical string: Cn1nnnc1C(=NOCc1cccc(NC(=O)OC(C)(C)C)n1)c1ccc(F)cc1
Measured quantity: Control value (%)
Endpoint unit: %
Measurement: 90
--
Chemical string: CCCCOC(=O)Nc1cccc(CON=C(c2cccc(F)c2)n2nnnc2C)n1
Measured quantity: Control value (%)
Endpoint unit: %
Measurement: 90
--
Chemical string: Cn1nnnc1C(=NOCc1cccc(NC(=O)OC(C)(C)C)n1)c1cccc(F)c1
Measured quantity: Control value (%)
Endpoint unit: %
Measurement: 100
--
Chemical string: CCCCCC(=O)Nc1cccc(CON=C(c2ccccc2)c2nnnn2C)n1
Measured quantity: Control value (%)
Endpoint unit: %
Measurement: 100

### Prompt Query: Control value (%); subject: "CCCCOC(=O)Nc1cccc(CON=C(c2ccc(C)cc2)n2nnnc2C)n1"
### Response 100
